Attribution: patent US20260184782A1

# target_under_test: T1, TIGIT (UniProt Q495A1 22-141, limits assumed)
# T1 construct: also called T cell immunoreceptor with Ig and ITIM domains; hTIGIT
# T1 sequence (looked up): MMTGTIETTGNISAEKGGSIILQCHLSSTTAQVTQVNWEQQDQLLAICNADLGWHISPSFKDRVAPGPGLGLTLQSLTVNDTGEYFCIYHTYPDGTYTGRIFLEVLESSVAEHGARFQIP
# assay_protocol: SPR, VHH-V5-His
# key: entry, value: koff
Form entry: value (s⁻¹) — number only.

TIGIT-30-54 (VHH-V5-His) (VHH, not shown: V5-His tag) VHH: EVQLVESGGGLVQAGGSLRLSCAASGFTFRSFGMGWFRQAPGKEREFVASTIWSRGDTYYADSVKGRFTISADNAKNTVYLQMNSLKPEDTAVYYCASSPYGPLYRSTHYYDWGQGTQVTVSS
0.04

Now, please, on to the next binder.
Any idea what koff was measured for TIGIT-31-06 (VHH-V5-His) (VHH, also called TIGIT-31-6; 31-6; not shown: V5-His tag) VHH: EVQLVESGGGLVQPGGSLRLSCAASGFTFSTSWMGWFRQAPGKERELVASITSGGSTYYADSVKGRFTISADNSKNTAYLQMNSLKPEDTAVYYCAADVWYGSTWRNWGQGTLVTVSS ? 0.003
